# TARGET UNDER TEST: Stromelysin (Homo sapiens, UniProt P08254)
# Sequence (P08254 100-477): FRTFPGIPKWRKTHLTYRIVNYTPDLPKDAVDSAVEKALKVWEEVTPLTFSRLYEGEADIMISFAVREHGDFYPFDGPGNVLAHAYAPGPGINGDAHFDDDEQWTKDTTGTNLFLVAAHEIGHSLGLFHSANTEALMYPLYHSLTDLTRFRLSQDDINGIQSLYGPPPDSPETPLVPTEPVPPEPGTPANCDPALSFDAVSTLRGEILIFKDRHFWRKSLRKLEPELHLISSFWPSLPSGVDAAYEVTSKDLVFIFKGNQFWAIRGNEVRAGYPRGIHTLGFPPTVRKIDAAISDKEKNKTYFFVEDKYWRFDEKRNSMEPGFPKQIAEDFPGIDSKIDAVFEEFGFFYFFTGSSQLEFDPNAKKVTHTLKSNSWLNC
# ASSAY DETAILS: MMP inhibition, particle concentration fluorescence assay
# Type: biochemical
# PARTICULARS: in vitro; fluorescein/biotin substrate; MMP buffer pH 7.5; room temperature
pKi: −log10 of the molar value. Structures can show the parent of a compound that is named as a salt.
Catalogue of pKi readings, one per entry.
MEASURED ENDPOINT: pKi

INSERT INTO measurements (molecule, measured_endpoint, reported) VALUES
  ('CCCCNC(=O)[C@H](Cc1ccc([N+](=O)[O-])cc1)NC(=O)Nc1n[nH]c(=S)s1', 'pKi', 6.46),
  ('O=C(Nc1n[nH]c(=S)s1)N[C@@H](Cc1ccccc1)C(=O)NCc1ccccn1', 'pKi', 5.96),
  ('O=C(Nc1n[nH]c(=S)s1)N[C@@H](Cc1ccccc1)C(=O)N1CCNCC1 [Example 56, trifluoroacetate]', 'pKi', 5.28),
  ('O=C(Nc1n[nH]c(=S)s1)N[C@@H](Cc1ccccc1)C(=O)NCCCO', 'pKi', 5.95),
  ('O=C(Nc1n[nH]c(=S)s1)N[C@@H](Cc1ccccc1)C(=O)NCc1cccc2ccccc12', 'pKi', 6.10),
  ('COC(=O)[C@H](Cc1ccc(-c2ccccc2)cc1)NC(=O)Nc1n[nH]c(=S)s1', 'pKi', 5.52),
  ('CC(C)C[C@H](NC(=O)Nc1n[nH]c(=S)s1)C(=O)NCCc1ccccc1', 'pKi', 5.46),
  ('COC(=O)[C@H](CO[Si](C)(C)C(C)(C)C)NC(=O)Nc1n[nH]c(=S)s1', 'pKi', 5.82),
  ('O=C(O)CCNC(=O)[C@H](Cc1ccccc1)NC(=O)Nc1n[nH]c(=S)s1', 'pKi', 5.97),
  ('CC(C)C[C@H](NC(=O)Nc1n[nH]c(=S)s1)C(=O)NCc1ccccc1', 'pKi', 5.35),
  ('CNC(=O)[C@H](CO[Si](C)(C)C(C)(C)C)NC(=O)Nc1n[nH]c(=S)s1', 'pKi', 6.12),
  ('CNC(=O)[C@H](Cc1ccc(C(C)(C)C)cc1)NC(=O)Nc1n[nH]c(=S)s1', 'pKi', 5.74),
  ('O=C(Nc1n[nH]c(=S)s1)N[C@@H](Cc1ccccc1)C(=O)NCCCCc1ccccc1', 'pKi', 6.09),
  ('COC(=O)[C@@H](NC(=O)Nc1n[nH]c(=S)s1)c1ccccc1', 'pKi', 5.12);

Each recorded value in this set is attributed to patent EP0900211B1.
